meta.source: patent US20250304549A1

Molecular target: HDAC8 (Homo sapiens (Human))
Sequence (Q9BY41 whole entry): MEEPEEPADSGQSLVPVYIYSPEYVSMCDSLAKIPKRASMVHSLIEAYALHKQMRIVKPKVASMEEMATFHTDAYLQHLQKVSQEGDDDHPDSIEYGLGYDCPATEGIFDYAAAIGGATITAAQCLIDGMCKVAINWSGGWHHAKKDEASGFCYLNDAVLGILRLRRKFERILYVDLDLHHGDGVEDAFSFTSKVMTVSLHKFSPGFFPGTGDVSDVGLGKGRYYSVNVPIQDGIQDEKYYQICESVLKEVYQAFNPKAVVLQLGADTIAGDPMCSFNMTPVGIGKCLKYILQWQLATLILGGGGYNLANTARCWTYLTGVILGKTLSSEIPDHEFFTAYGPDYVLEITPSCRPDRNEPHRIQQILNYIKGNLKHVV
Test: In vitro enzyme inhibition assay - HDAC (HDAC-Glo I/II), HDAC8
Format: biochemical
Settings: read-out: HDAC IC50 (nM) HDAC 8
From the text: 2. In Vitro Enzyme Inhibition Assay—HDAC The effect of the compound on the enzymatic activity of pan-HDAC and two isoforms (HDAC1 and HDAC8) was examined using the HDAC-Glo I/II Assay and Screening System assay to assess the level of inhibition of HDAC protease activity and selectivity in each isoform. […] The 384-well plate was then read on a multifunctional microplate reader, with the Luminescence channel selected to record Luminescence values (RLU). […]
Structures can show the parent of a compound that is named as a salt.
Decide using IC50 alone. Strictly below 100 nM: 1. Equal to or above 100 nM: -1.

Completed entries (count: 2):
COc1ccc(-c2cnc(N3CCC(NCc4ccc(/C=C/C(=O)NO)nc4)CC3)c(C#N)c2-c2ccc(C#N)c(F)c2)cc1O [Example 117]    1
COc1ccc(-c2cnc(N3CCC(NCc4ncc(/C=C/C(=O)NO)s4)CC3)c(C#N)c2-c2ccc(C#N)c(F)c2)cc1O [Example 151, hydrochloride]    -1

input: Find out if reported IC50 for COc1cc(N2CCC(N)CC2)nc(-c2ccc(C#N)c(F)c2)c1-c1ccc(OCCCCCCC(=O)NO)c(O)c1 [Example 27, hydrochloride] is less than 100 nM
output: -1

input: Input COc1ccc(-c2cnc(N3CCC(NCc4ccc(/C=C/C(=O)NO)cc4)CC3)nc2-c2ccc(C#N)c(F)c2)cc1O [Example 71] ; condition: IC50 strictly below 100 nM. Does it hold?
output: -1

input: For COc1ccc(-c2c(-c3ccc(C#N)c(F)c3)nc(N3CCC(N)CC3)n(C)c2=O)cc1F [CC-90011, reference compound] , is the recorded IC50 below the cut-off of 100 nM?
output: -1

input: Dear reviewer, please state whether COc1ccc(-c2c(OC)cc(N3CCC(N)CC3)nc2-c2ccc(C#N)c(F)c2)cc1OCCNCc1ccc(/C=C/C(=O)NO)cc1 [Example 30, hydrochloride] has IC50 strictly beneath 100 nM.
output: 1

----------
Target: HDAC1 (Homo sapiens (Human))
Sequence (Q13547 whole entry): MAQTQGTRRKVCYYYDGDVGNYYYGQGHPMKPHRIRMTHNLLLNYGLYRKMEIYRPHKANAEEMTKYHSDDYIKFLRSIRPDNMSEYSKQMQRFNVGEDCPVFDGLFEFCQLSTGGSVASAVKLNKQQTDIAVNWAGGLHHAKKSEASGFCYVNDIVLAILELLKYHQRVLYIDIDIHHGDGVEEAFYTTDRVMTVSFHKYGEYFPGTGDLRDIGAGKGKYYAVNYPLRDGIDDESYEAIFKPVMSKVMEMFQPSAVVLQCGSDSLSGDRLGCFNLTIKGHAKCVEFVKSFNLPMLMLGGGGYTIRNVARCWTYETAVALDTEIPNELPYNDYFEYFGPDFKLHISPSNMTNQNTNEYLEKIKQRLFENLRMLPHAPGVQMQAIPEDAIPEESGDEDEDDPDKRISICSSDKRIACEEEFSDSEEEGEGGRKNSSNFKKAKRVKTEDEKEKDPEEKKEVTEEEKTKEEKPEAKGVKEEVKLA
Experiment: In vitro enzyme inhibition assay - HDAC (HDAC-Glo I/II), HDAC1
Format: biochemical
Details: read-out: HDAC IC50 (nM) HDAC 1
Source text: 2. In Vitro Enzyme Inhibition Assay—HDAC The effect of the compound on the enzymatic activity of pan-HDAC and two isoforms (HDAC1 and HDAC8) was examined using the HDAC-Glo I/II Assay and Screening System assay to assess the level of inhibition of HDAC protease activity and selectivity in each isoform. […] The 384-well plate was then read on a multifunctional microplate reader, with the Luminescence channel selected to record Luminescence values (RLU). […]
Structures can show the parent of a compound that is named as a salt.
quantity.name: IC50 (nM)
One number for each entry, in nM.

For every listed record, write down its IC50.
1. COc1cc(N2CCC(N)CC2)nc(-c2ccc(C#N)c(F)c2)c1-c1ccc(OC/C=C/C(=O)NO)c(O)c1 [Example 29, hydrochloride]
2. COc1ccc(-c2cnc(N3CCC(NCc4ccc(/C=C/C(=O)NO)cc4)CC3)c(C)c2-c2ccc(C#N)c(F)c2)cc1O [Example 144, hydrochloride]
3. N#Cc1ccc(-c2c(-c3ccc(N4CCOCC4)c(O)c3)cnc(N3CCC(NCc4ccc(/C=C/C(=O)NO)cc4)CC3)c2C#N)cc1F

output:
1: 123; 2: 0.21; 3: 1.58
